Exercise: for every item that follows, state its recorded pEC50.
biological target: UniProt:Q96RI1; test: Human FXR (NR1H4) Assay (Gal4 promoter driven luciferase reporter, Indigo Bioscience kit); conditions: Human FXR (NR1H4) Assay, potency ranges
Sequence (Q96RI1 whole entry, the tested form may be a part): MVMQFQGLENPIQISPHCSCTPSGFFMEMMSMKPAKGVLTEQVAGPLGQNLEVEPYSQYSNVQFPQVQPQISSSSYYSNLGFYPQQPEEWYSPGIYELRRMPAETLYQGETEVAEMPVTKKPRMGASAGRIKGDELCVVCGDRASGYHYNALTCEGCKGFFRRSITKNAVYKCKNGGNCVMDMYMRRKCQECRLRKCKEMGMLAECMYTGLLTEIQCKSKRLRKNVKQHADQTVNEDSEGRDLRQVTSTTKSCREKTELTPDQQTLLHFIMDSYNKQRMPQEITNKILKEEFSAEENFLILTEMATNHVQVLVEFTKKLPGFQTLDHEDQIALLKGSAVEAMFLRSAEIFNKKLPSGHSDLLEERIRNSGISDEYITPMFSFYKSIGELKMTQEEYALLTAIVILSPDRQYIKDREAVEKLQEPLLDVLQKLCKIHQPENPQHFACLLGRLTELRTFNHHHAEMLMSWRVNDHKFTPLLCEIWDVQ
pEC50: −log10 of the molar value.

State, in one line, measured pEC50 of CC[C@H]1[C@@H](O)[C@@H]2[C@H](CC[C@]3(C)[C@@H]([C@H](C)CCOC(=O)NS(=O)(=O)N(C)C)CC[C@@H]23)[C@@]2(C)CC[C@@H](O)C[C@@H]12
> 7.00

State, in one line, measured pEC50 of CC[C@H]1[C@@H](O)[C@@H]2[C@H](CC[C@]3(C)[C@@H]([C@H](C)COC(=O)NS(=O)(=O)c4ccc(O)cc4)CC[C@@H]23)[C@@]2(C)CC[C@@H](O)C[C@@H]12
6.00 to 7.00

State, in one line, measured pEC50 of CC[C@H]1[C@@H](O)[C@@H]2[C@H](CC[C@]3(C)[C@@H]([C@H](C)COC(=O)NS(=O)(=O)c4ccc(N5CCC(C)(C)CC5)cc4)CC[C@@H]23)[C@@]2(C)CC[C@@H](O)C[C@@H]12
> 7.00

State, in one line, measured pEC50 of CC[C@H]1[C@@H](O)[C@@H]2[C@H](CC[C@]3(C)[C@@H]([C@H](C)CCOC(=O)NC(C)(C)C)CC[C@@H]23)[C@@]2(C)CC[C@@H](O)C[C@@H]12
5.00 to 6.00

State, in one line, measured pEC50 of CC[C@H]1[C@@H](O)[C@@H]2[C@H](CC[C@]3(C)[C@@H]([C@H](C)CCOC(=O)NC(C)C)CC[C@@H]23)[C@@]2(C)CC[C@@H](O)C[C@@H]12
6.00 to 7.00

State, in one line, measured pEC50 of CC[C@H]1[C@@H](O)[C@@H]2[C@H](CC[C@]3(C)[C@@H]([C@H](C)CCOC(=O)N[C@H]4CC[C@H](O)CC4)CC[C@@H]23)[C@@]2(C)CC[C@@H](O)C[C@@H]12
6.00 to 7.00

State, in one line, measured pEC50 of CC[C@H]1[C@@H](O)[C@@H]2[C@H](CC[C@]3(C)[C@@H]([C@H](C)CCOC(=O)NS(=O)(=O)C4CCCC4)CC[C@@H]23)[C@@]2(C)CC[C@@H](O)C[C@@H]12
> 7.00

State, in one line, measured pEC50 of CC[C@H]1[C@@H](O)[C@@H]2[C@H](CC[C@]3(C)[C@@H]([C@H](C)CCOC(=O)NCCSC)CC[C@@H]23)[C@@]2(C)CC[C@@H](O)C[C@@H]12
6.00 to 7.00

State, in one line, measured pEC50 of CC[C@H]1[C@@H](O)[C@@H]2[C@H](CC[C@]3(C)[C@@H]([C@H](C)CCCOC(=O)NC4CCCCC4)CC[C@@H]23)[C@@]2(C)CC[C@@H](O)C[C@@H]12
5.00 to 6.00

State, in one line, measured pEC50 of CC[C@H]1[C@@H](O)[C@@H]2[C@H](CC[C@]3(C)[C@@H]([C@H](C)COC(=O)NS(=O)(=O)c4ccc(Oc5ccccc5)cc4)CC[C@@H]23)[C@@]2(C)CC[C@@H](O)C[C@@H]12
6.00 to 7.00

State, in one line, measured pEC50 of CC[C@H]1[C@@H](O)[C@@H]2[C@H](CC[C@]3(C)[C@@H]([C@H](C)CCOC(=O)N(CCO)CCO)CC[C@@H]23)[C@@]2(C)CC[C@@H](O)C[C@@H]12
6.00 to 7.00

State, in one line, measured pEC50 of CC[C@H]1[C@@H](O)[C@@H]2[C@H](CC[C@]3(C)[C@@H]([C@H](C)COC(=O)NS(=O)(=O)N(C)C)CC[C@@H]23)[C@@]2(C)CC[C@@H](O)C[C@@H]12
5.00 to 6.00

State, in one line, measured pEC50 of CC[C@H]1[C@@H](O)[C@@H]2[C@H](CC[C@]3(C)[C@@H]([C@H](C)CCOC(=O)N4CCC[C@@H]4CO)CC[C@@H]23)[C@@]2(C)CC[C@@H](O)C[C@@H]12
> 7.00

State, in one line, measured pEC50 of CC[C@H]1[C@@H](O)[C@@H]2[C@H](CC[C@]3(C)[C@@H]([C@H](C)CCOC(=O)NCc4ccc(O)cc4)CC[C@@H]23)[C@@]2(C)CC[C@@H](O)C[C@@H]12
6.00 to 7.00

State, in one line, measured pEC50 of CC[C@H]1[C@@H](O)[C@@H]2[C@H](CC[C@]3(C)[C@@H]([C@H](C)CCOC(=O)N[C@H]4CCCC[C@@H]4O)CC[C@@H]23)[C@@]2(C)CC[C@@H](O)C[C@@H]12
6.00 to 7.00

State, in one line, measured pEC50 of CC[C@H]1[C@@H](O)[C@@H]2[C@H](CC[C@]3(C)[C@@H]([C@H](C)CCOC(=O)N4CCC[C@H](CO)C4)CC[C@@H]23)[C@@]2(C)CC[C@@H](O)C[C@@H]12
6.00 to 7.00

State, in one line, measured pEC50 of CC[C@H]1[C@@H](O)[C@@H]2[C@H](CC[C@]3(C)[C@@H]([C@H](C)CCOC(=O)N4CC[C@H](O)C4)CC[C@@H]23)[C@@]2(C)CC[C@@H](O)C[C@@H]12
> 7.00

State, in one line, measured pEC50 of CC[C@H]1[C@@H](O)[C@@H]2[C@H](CC[C@]3(C)[C@@H]([C@H](C)CCOC(=O)NS(=O)(=O)c4ccc5ccccc5c4)CC[C@@H]23)[C@@]2(C)CC[C@@H](O)C[C@@H]12
> 7.00
